ASSAY_TEXT: Cell Viability - LYMP2-013 (AID 970);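 further: cells exposed to compound for 24 h at 37 °C; nearly all actives have a fitted effect of over 55% in size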
CONDITIONS: LYMP2-013 lymphoblastoid cells viability; series mostly up to 92.2 µM
Inconclusive results are not listed. Active and inactive are the calls of the source. The call rests on the fitted dose curve; in most records, active means well fitted cell-killing curve with a large enough effect; inconclusive means small, poorly fitted or top-dose-only effect; inactive means flat fitted curve, though single readings scatter.
Labels: active, inactive

CHEMICAL_SMILES: O=C1C(Cl)=C(Cl)C(=O)C(Cl)=C1Cl
CLASS: active
--
CHEMICAL_SMILES: COP(=S)(OC)Oc1ccc([N+](=O)[O-])cc1
CLASS: inactive
--
CHEMICAL_SMILES: Cc1ccc(O)c(C)c1
CLASS: inactive
--
CHEMICAL_SMILES: N#CCCCl
CLASS: inactive
--
CHEMICAL_SMILES: O=NN(c1ccccc1)c1ccccc1
CLASS: inactive
--
CHEMICAL_SMILES: CC(C)(C)OOC(C)(C)C
CLASS: inactive
--
CHEMICAL_SMILES: CCCC(=O)Cl
CLASS: inactive
--
CHEMICAL_SMILES: CC(Cl)Cl
CLASS: inactive
--
CHEMICAL_SMILES: ClC(Cl)=C(c1ccc(Cl)cc1)c1ccc(Cl)cc1
CLASS: inactive
--
CHEMICAL_SMILES: COC(=O)NC(=S)Nc1ccccc1NC(=S)NC(=O)OC
CLASS: inactive
--
CHEMICAL_SMILES: Clc1nc(Cl)nc(Nc2ccccc2Cl)n1
CLASS: inactive
--
CHEMICAL_SMILES: C=CCOC(=O)c1ccccc1N
CLASS: inactive
--
CHEMICAL_SMILES: CNC(=O)O/N=C/C(C)(C)SC
CLASS: inactive

src = PubChem BioAssay (NCATS)
